Where these numbers come from: patent US20220017636A1

Recorded Signal/background by entry
Molecular target: T1, MYOF peptide complexed with HLA-A*02:01 on T2 cells (human)
T1 construct: whole, on cells
Assay: flow cytometry, peptide-loaded T2 cells;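 note: binding of single-chain Fv antibody constructs, raised in XenoMouse, to peptide-pulsed T2 cells measured by flow cytometry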

Worked cases, Signal/background given:
18089-D12 (scFv, scFv in bacterial lysate, detected with anti-Flag M2) scFv: EVQLLESGGGVVQPGRSLRLSCAASGFTFSTYGMHWVRQAPGKGLEWVAVISYDGSNKYYADSVKGRFTISRDDSKNTLYLQMNSLRAEDTAVYYCARGQLLTGYWGQGTLVTVSSGGGGSGGGGSGGGGSELVMTQSPSSLSASVGDRVTITCRASQGISNYLAWYQQKPGKVPKLLIYAASTLQSGVPSRFSGSGSGTDFTLTISSLQPEDVATYYCQKYNSAPFTFGPGTKVEIK    1.1
18181-A6 (scFv, scFv in bacterial lysate, detected with anti-Flag M2) scFv: EVQLLESGGGLVQPGGSLRLSCAASGFTFSNAWMSWVRQAPGKGLEWVGRIKGNTYGGTTDYAAPVKGRFTISRDDSKNTLYLQMNSLKTEDTAVYYCTTPSYSGSYYNYFSVMDVWGQGTTVTVSSGGGGSGGGGSGGGGSELVMTQSPSSLSASVGDRVTITCRASQSISSYLNWYQQKPGRAPKLLIFAASSLQGGVPSRFSGSGSGTDFTLTISSLQPEDFATYYCQQTYSMPFTFGPGTKLEIK    1.1

Please examine the following record next.
Query: Using the record for 18179-H7 (scFv, scFv in bacterial lysate, detected with anti-Flag M2) scFv: EVQLLESGGGLVQPGGSLRLSCAASGFTFSNAWMSWVRQAPGKGLEWVGRIKSKTYGGTTDYAAPVKGRFTISRDDSKNTLYLQMNSLKTEDTAVYYCTTPSYSGSYYNYFSVMDVWGQGTTVTVSSGGGGSGGGGSGGGGSELQMTQSPSSLSASVGDRVTITCRTSQSISSYLNWFQQKPGKAPKLLIFAASSLQSGVPSRFSGSGSGTDFTLTISSLQPEDFATYYCQQSYSSPFTFGPGTKVEIK , report its Signal/background.
Reply: 1.1
